The measured values listed here are drawn from patent US10973803B2.

Assay: physchem
Conditions: water, thermodynamic from solid
endpoint.name: solubility (mg/mL)
Numbers only here, please. The scale is mg/mL.

**Q:** Looking for the measured solubility of "CC(C)n1ccc(S(=O)(=O)NC(=O)Nc2c3c(cc4c2CCC4)CCC3)n1.O.[Na]" , can you help?
**A:** 81

###

Experiment: thermodynamic aqueous solubility measured in water
Conditions: water, thermodynamic from solid
endpoint.name: solubility

**Q:** Would you kindly share the measured solubility for CC(C)n1ccc(S(=O)(=O)NC(=O)Nc2c3c(cc4c2CCC4)CCC3)n1 [Comparative Example 1, reference compound] ?
**A:** < 500 µg/mL
